Taken from ChEMBL document CHEMBL1156906.

molecular target: Broad substrate specificity ATP-binding cassette transporter ABCG2 (Homo sapiens); experiment: Inhibition of ABCG2 expressed in human NCI-H460/MX20 cells assessed as accumulation of ABCG2 substrate pheophorbide-A
Sequence (Q9UNQ0 whole entry): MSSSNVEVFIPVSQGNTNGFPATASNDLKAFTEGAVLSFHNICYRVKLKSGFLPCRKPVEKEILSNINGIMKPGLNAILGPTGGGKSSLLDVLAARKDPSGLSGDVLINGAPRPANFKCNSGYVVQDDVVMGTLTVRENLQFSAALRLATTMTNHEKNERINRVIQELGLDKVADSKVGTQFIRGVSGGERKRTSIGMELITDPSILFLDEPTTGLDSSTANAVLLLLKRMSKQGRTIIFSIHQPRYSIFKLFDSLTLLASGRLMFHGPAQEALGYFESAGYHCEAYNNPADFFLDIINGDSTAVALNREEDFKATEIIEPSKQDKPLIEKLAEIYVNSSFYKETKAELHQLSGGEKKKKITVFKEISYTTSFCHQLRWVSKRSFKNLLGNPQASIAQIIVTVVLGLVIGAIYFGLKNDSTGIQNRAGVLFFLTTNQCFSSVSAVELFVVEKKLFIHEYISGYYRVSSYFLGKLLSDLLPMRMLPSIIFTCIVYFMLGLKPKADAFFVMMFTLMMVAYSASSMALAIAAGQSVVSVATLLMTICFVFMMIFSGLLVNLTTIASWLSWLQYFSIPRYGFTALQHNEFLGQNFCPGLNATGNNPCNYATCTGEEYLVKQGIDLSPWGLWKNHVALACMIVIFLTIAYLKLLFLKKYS
pIC50: −log10 of the molar value.
MEASURE_NAME: pIC50

- CO/C(=C\c1ccccc1)C(=O)N/C=C/c1ccc(O)cc1: 4.81
- CO/C(=C\c1ccc(O)c(O)c1)C(=O)N/C=C/c1ccc(O)cc1: 4.73
- CO/C(=C\c1cc(Br)c(O)c(Br)c1)C(=O)N/C=C/c1ccc(OC(C)=O)cc1: 4.63

P: CO/C(=C\c1ccc(O)cc1)C(=O)NCCc1ccc(O)cc1
Q: CO/C(=C\c1ccc(OC)cc1)C(=O)N/C=C/c1ccc(O)cc1
R: CO/C(=C\c1cc(Br)c(O)c(Br)c1)C(=O)N/C=C/c1ccc(O)cc1
## Task Highest pIC50 first, then in falling order down to the smallest. Answer by listing the labels in the order asked for.
## Result Q, R, P
(Q: 5.19, R: 4.95, P: 4.60)
